test system: mouse p16Ink4a+/- lung fibroblasts (INKBRITE, bleomycin-injured); assay: GFP- (p16Ink4a-) cell count relative to negative-control wells (fold of vehicle); higher = more p16Ink4a- cells surviving; details: 1 µM; 3 days
Counter-ions that a name gives are not always drawn. In all, about 1,800 compounds were measured (“GFP- (p16Ink4a-) cell count relative to negative-control wells”: median about 0.99, lowest 2% from about 0.5 on). The sample holds the lowest values, similar compounds and a random draw of the others, so the mix is not that of the screen.
Endpoint: GFP-
One number for each entry.

Compound	Target	GFP-
O=C(/C=C/c1ccc(CN(CCO)CCc2c[nH]c3ccccc23)cc1)NO	mouse p16Ink4a+/- lung fibroblasts (INKBRITE, bleomycin-injured)	0.556
O=C(O)C(O)Cc1ccc(O)c(O)c1 (stereo not given) [Sodium Danshensu]	mouse p16Ink4a+/- lung fibroblasts (INKBRITE, bleomycin-injured)	1.19
Cn1cc(C2=C(c3ccc(Cl)cc3Cl)C(=O)NC2=O)c2ccccc21	mouse p16Ink4a+/- lung fibroblasts (INKBRITE, bleomycin-injured)	0.845
COC(=O)[C@H]1[C@H]2C[C@@H]3c4[nH]c5cc(OC)ccc5c4CCN3C[C@H]2C[C@@H](OC(=O)c2cc(OC)c(OC)c(OC)c2)[C@@H]1OC	mouse p16Ink4a+/- lung fibroblasts (INKBRITE, bleomycin-injured)	0.806
CC(C)c1ccc(NC(=O)Cn2cnc3c2c(=O)n(C)c(=O)n3C)cc1	mouse p16Ink4a+/- lung fibroblasts (INKBRITE, bleomycin-injured)	0.98
Cc1cc(CN2CCN(c3c(Br)cnc4[nH]c(-c5ccc(N6CCN(C)CC6)cc5)nc34)CC2)no1	mouse p16Ink4a+/- lung fibroblasts (INKBRITE, bleomycin-injured)	0.664
CN1CCCC(n2nc(Cc3ccc(Cl)cc3)c3ccccc3c2=O)CC1 (stereo not given) [Azelastine, Azelastine Hydrochloride]	mouse p16Ink4a+/- lung fibroblasts (INKBRITE, bleomycin-injured)	1
Cc1c(OCC(F)(F)F)ccnc1C[S@@](=O)c1nc2ccccc2[nH]1	mouse p16Ink4a+/- lung fibroblasts (INKBRITE, bleomycin-injured)	0.956

Please go through the list and note GFP- for each compound.
1. C[C@@H](CN1CC(=O)NC(=O)C1)N1CC(=O)NC(=O)C1
2. COc1cc2nc(N3CCN(C(=O)C4CCCO4)CC3)nc(N)c2cc1OC (stereo not given)
3. CC1=NC(N)=C(C(=O)OC2CN(C(c3ccccc3)c3ccccc3)C2)C(c2cccc([N+](=O)[O-])c2)/C1=C(/O)OC(C)C (stereo not given)
4. O=S(=O)(c1ccccc1)N(CC(F)(F)F)c1ccc(C(O)(C(F)(F)F)C(F)(F)F)cc1
5. Nc1ccc(-c2ccc3ncc4ccc(=O)n(-c5cccc(C(F)(F)F)c5)c4c3c2)cn1
6. N#Cc1ccc2[nH]cc(CCCCN3CCN(c4ccc5oc(C(N)=O)cc5c4)CC3)c2c1
7. C=C1C(=O)[C@@]23C(CC[C@@H]1[C@H]2O)[C@@]12CO[C@]3(O)[C@@H](O)[C@@H]1C(C)(C)CC[C@@H]2O (stereo not given in full)

1: 0.899; 2: 0.942; 3: 1.11; 4: 0.972; 5: 0.456; 6: 1.07; 7: 0.884

Please go through the list and note GFP- for each compound.
1. CC[C@H]1OC(=O)[C@H](C)[C@@H](O[C@H]2C[C@@](C)(OC)[C@@H](O)[C@H](C)O2)[C@H](C)[C@@H](O[C@@H]2O[C@H](C)C[C@H](N(C)C)[C@H]2O)[C@](C)(O)C[C@@H](C)/C(=N/OCOCCOC)[C@H](C)[C@@H](O)[C@]1(C)O
2. Cc1[nH]c(/C=C2\C(=O)Nc3ccccc32)c(C)c1CCC(=O)O [Orantinib]
3. N[C@H]1C[C@@H]1c1ccc(-c2cccc(O)c2)cc1

[0.988, 1.09, 1.01]
